Reference for the values: patent US20260317356A1

target: hOGG1 (Homo sapiens); assay: Biochemical fluorescence assay to measure enzymatic activity of hOGG1 (OGG1/APEX IC50); design: Protein His-hOGG1 (12-323) was prepared; His (N); host or cells: E. coli; details: 1 nM OGG1+2 nM APEX+6 nM dsDNA (8-oxo-dG substrate); pH 7.5; RT 40 min; read-out: OGG1/APEX IC50
Sequence (O15527 12-323): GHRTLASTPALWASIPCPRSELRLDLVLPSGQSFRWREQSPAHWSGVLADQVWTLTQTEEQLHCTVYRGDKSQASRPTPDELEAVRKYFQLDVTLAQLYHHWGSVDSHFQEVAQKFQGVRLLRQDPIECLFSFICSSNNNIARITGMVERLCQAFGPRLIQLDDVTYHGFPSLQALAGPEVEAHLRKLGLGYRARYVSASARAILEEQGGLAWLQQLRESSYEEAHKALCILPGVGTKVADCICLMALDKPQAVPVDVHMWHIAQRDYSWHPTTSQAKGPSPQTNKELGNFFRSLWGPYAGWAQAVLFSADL
pIC50: −log10 of the molar value.
Below, each of the compounds is paired with its reported pIC50 value.
METRIC: pIC50

COMPOUND: COc1ccc(NC(=O)[C@]2(C)CC[C@H](N3Cc4c(C)cccc4NC3=O)CC2)cc1C#N (single isomer, unassigned)
REPORTED MEASUREMENT: > 7.00

COMPOUND: COc1cc(NC(=O)[C@@H]2[C@@H]3C[C@@H](N4Cc5c(Br)cccc5C4=O)C[C@@H]32)ccc1C (single isomer, unassigned) [Example 269]
REPORTED MEASUREMENT: 5.00 to 6.00

COMPOUND: COc1cc(NC(=O)[C@H]2[C@@H]3C[C@H](N4Cc5c(Br)cccc5C4=O)C[C@@H]32)ccc1C (single isomer, unassigned)
REPORTED MEASUREMENT: 6.00 to 7.00

COMPOUND: Cc1cccc2c1CN([C@H]1CC[C@@H](C(=O)Nc3nc(C)c(C)s3)CC1)C2=O
REPORTED MEASUREMENT: < 5.00

COMPOUND: COc1cc(NC(=O)[C@H]2CC[C@@H](N3Cc4c(Br)ccnc4C3=O)CC2)ccc1C
REPORTED MEASUREMENT: 6.00 to 7.00

COMPOUND: COc1cccc(NC(=O)[C@H]2CC[C@@H](N3Cc4c(C)cccc4C3=O)CC2)n1
REPORTED MEASUREMENT: 5.00 to 6.00

COMPOUND: CCc1ccc(NC(=O)[C@H]2CC[C@@H](N3Cc4c(C)cccc4NC3=O)CC2)cc1OC
REPORTED MEASUREMENT: 6.00 to 7.00

---

Below, each of the compounds is paired with its reported pIC50 value.
Target: hOGG1 (Homo sapiens)
Assay: Biochemical fluorescence assay to measure enzymatic activity of hOGG1 (OGG1/APEX IC50)
Parameters: Protein His-hOGG1 (12-323) was prepared; His (N); host or cells: E. coli
Details: 1 nM OGG1+2 nM APEX+6 nM dsDNA (8-oxo-dG substrate); pH 7.5; RT 40 min; read-out: OGG1/APEX IC50
Description: Biological Example 1: Biochemical Assay to Measure Enzymatic Activity of hOGG1 (OGG1/APEX IC50) The reported fluorescence-based assay (Donley et al ACS Chem Biol 2015; 10 (10), 2334-2343) was modified to include hAPE1/APEX1 protein. The oligonucleotide substrate with 8-oxo-dG lesion at X was prepared (LGC Biosearch, Petaluma, CA): […] • (1) Calculated respective mean of Max and Min control wells. • (2) Converted data to percentage inhibition. […]
pIC50: −log10 of the molar value.
METRIC: pIC50

COMPOUND: COc1ccc(NC(=O)[C@H]2CC[C@@H](N3Cc4c(C)cccc4C3=O)CC2)cc1C(F)(F)F
METRIC: pIC50
REPORTED MEASUREMENT: 6.00 to 7.00
//
COMPOUND: COc1cc(NC(=O)[C@H]2CC[C@@H](N3Cc4c(C)ccc(CO)c4NC3=O)CC2)ccc1C
METRIC: pIC50
REPORTED MEASUREMENT: > 7.00
//
COMPOUND: COc1cc(NC(=O)[C@H]2CC[C@@H](N3Cc4c(C)cccc4NC3=O)CC2)ccc1C
METRIC: pIC50
REPORTED MEASUREMENT: > 7.00
//
COMPOUND: COc1cc(NC(=O)[C@H]2CC[C@@H](N3Cc4c(C)ccc(CN)c4NC3=O)CC2)ccc1C
METRIC: pIC50
REPORTED MEASUREMENT: > 7.00
//
COMPOUND: COc1cc(NC(=O)[C@H]2CC[C@@H](N3Cc4c(Br)cc(NCC5CCCN5)cc4C3=O)CC2)ccc1C (stereo partly drawn)
METRIC: pIC50
REPORTED MEASUREMENT: > 7.00
//
COMPOUND: COc1ccc(NC(=O)[C@H]2CC[C@@H](N3Cc4c(C)cccc4NC3=O)CC2)cc1C
METRIC: pIC50
REPORTED MEASUREMENT: > 7.00
//
COMPOUND: COc1ccc(NC(=O)[C@H]2CC[C@@H](N3Cc4c(C)cc(NCCN(C)C)cc4NC3=O)CC2)cc1C#N
METRIC: pIC50
REPORTED MEASUREMENT: > 7.00
//
COMPOUND: CCc1ccc(NC(=O)[C@H]2CC[C@@H](N3Cc4c(C)cccc4NC3=O)CC2)cc1C
METRIC: pIC50
REPORTED MEASUREMENT: 6.00 to 7.00
//
COMPOUND: COc1cc(NC(=O)C(C)N2CC(N3Cc4c(Br)cccc4C3=O)C2)ccc1C (stereo not drawn)
METRIC: pIC50
REPORTED MEASUREMENT: < 5.00
//
COMPOUND: COc1cc(NC(=O)[C@H]2CC[C@@H](N3Cc4c(C)cc(CN)cc4NC3=O)CC2)ccc1C
METRIC: pIC50
REPORTED MEASUREMENT: > 7.00
//
COMPOUND: Cc1cccc2c1CN([C@H]1CC[C@@H](C(=O)Nc3ccc(Cl)cc3)CC1)C2=O
METRIC: pIC50
REPORTED MEASUREMENT: 6.00 to 7.00
//
COMPOUND: Cc1cccc2c1CN([C@H]1CC[C@@H](C(=O)Nc3ccc(Cl)c(Cl)c3)CC1)C2=O
METRIC: pIC50
REPORTED MEASUREMENT: 6.00 to 7.00
//
COMPOUND: COc1cc(NC(=O)[C@H]2CC[C@@H](N3Cc4c(C)cccc4C3=O)CC2)ccn1
METRIC: pIC50
REPORTED MEASUREMENT: < 5.00
//
COMPOUND: COc1cc(NC(=O)[C@H]2CC[C@@H](N3Cc4c(C)ccc(Cl)c4C3=O)CC2)ccc1C
METRIC: pIC50
REPORTED MEASUREMENT: > 7.00
//
COMPOUND: COc1cc(NC(=O)[C@H]2CC[C@@H](n3[nH]c4c(C)cccc4c3=O)CC2)ccc1C
METRIC: pIC50
REPORTED MEASUREMENT: > 7.00
//
COMPOUND: COc1ccc(NC(=O)[C@H]2CC[C@@H](N3Cc4c(C)cc(NCCN(C)C)cc4NC3=O)CC2)cc1Cl
METRIC: pIC50
REPORTED MEASUREMENT: > 7.00
//
COMPOUND: Cc1cccc2c1CN([C@H]1CC[C@@H](C(=O)Nc3cc4ccccc4[nH]3)CC1)C2=O
METRIC: pIC50
REPORTED MEASUREMENT: 6.00 to 7.00
//
COMPOUND: CCOC(=O)c1ccc2c(c1)CN([C@H]1CC[C@@H](C(=O)Nc3ccc(C)c(OC)c3)CC1)C2=O
METRIC: pIC50
REPORTED MEASUREMENT: < 5.00
//
COMPOUND: COc1cc(NC(=O)[C@H]2CC[C@@H](N3Cc4c(OC)cccc4C3=O)CC2)ccc1C
METRIC: pIC50
REPORTED MEASUREMENT: 5.00 to 6.00
//
COMPOUND: CNC(=O)c1cc(C)c2c(c1)NC(=O)N([C@H]1CC[C@@H](C(=O)Nc3ccc(C)c(OC)c3)CC1)C2
METRIC: pIC50
REPORTED MEASUREMENT: > 7.00
//
COMPOUND: COc1cc(NC(=O)[C@]2(C)CC[C@@H](N3Cc4c(C)cccc4C3=O)CC2)ccc1C
METRIC: pIC50
REPORTED MEASUREMENT: 5.00 to 6.00
